# Test system: HepG2
# test.method.notes: GSK_TCMDC: Percent inhibition of human HepG2 cell line. Test compounds present at 10uM.
# Format: functional
# Lookup of reported Inhibition keyed by entry
readout.kind: Inhibition (%)

                                    compound  measurement_target  unit_string  numeric_result
 0  CC(C)NCc1cccc(-c2ccc(NC(=O)c3ccc(F)cc3)cc2)c1.O=C(O)C(F)(F)F               HepG2            %               7
 1  Cc1cc(N(C)C)nc(Nc2ccc(NC(=O)CCc3ccccc3)cc2)n1               HepG2            %              20
 2  COc1ccc(C2C(C(=O)Nc3ccc4c(c3)OCO4)c3cc(OC)c(OC)cc3C(=O)N2C)cc1 (centres undefined)               HepG2            %              12
 3  CC(C)c1ccc(NC(=O)N2CCc3ccc(OCCN(C(C)C)C(C)C)cc32)c(Br)c1.O=C(O)C(F)(F)F               HepG2            %               6
 4  CCCNCc1ccc(-c2ccc(CN(CCOC)C(=O)CCc3ccc(OC)cc3)cc2)nc1.O=C(O)C(F)(F)F               HepG2            %              11
 5  Cc1ccc(NC(=O)Nc2ccc(Cl)cc2)cc1-c1cccc(C(=O)Nc2ccc(F)cc2)c1               HepG2            %               8
 6  Cl.O=C(c1ccc(Cl)c(Cl)c1)N1CCc2c([nH]c3ccccc23)C1CN1CCCC1 (centres undefined)               HepG2            %              83
 7     Cc1cc(=NN=Cc2ccccc2F)c2cc(F)ccc2[nH]1               HepG2            %               9
 8  CC1CCC(C[C@@H](C(=O)N[C@H](C(=O)Nc2nccs2)[C@@H](C)O)[C@H](CCC(F)(F)F)N(O)C=O)CC1 (some centres undefined)               HepG2            %               0
 9  CC(C)(C)c1nn(-c2ccccc2)c2[nH]c(=O)c(CNCc3ccccc3)cc12               HepG2            %               5
10         Br.Cc1ccnc(Nc2nc(-c3ccccn3)cs2)c1               HepG2            %              45
11  CN1CCCN(Cc2ccc(-c3ccc(NC(=O)c4ccc(Cl)cc4)cc3)cc2)CC1.O=C(O)C(F)(F)F               HepG2            %              58
12  COc1cccc(-c2nc(Nc3ccncc3)c3ncn(C)c3n2)c1.O=C(O)C(F)(F)F               HepG2            %              14
13  CC(Oc1ccc(C(=O)c2ccc(F)cc2)cc1)C(=O)N1CCc2ccccc21 (centres undefined)               HepG2            %               9
14  COc1cc2nccc(Nc3ccc(Oc4ccccc4)cc3)c2cc1OC.Cl               HepG2            %              13
15  O=C(Nc1ccc(Cl)cc1)Nc1cccc(CCNCc2ccccc2)c1.O=C(O)C(F)(F)F               HepG2            %              16
16  Cc1cccc2nc(-c3ccc(-c4cccc(CNCCNC(=O)c5ccnn5C)c4)s3)[nH]c12.O=C(O)C(F)(F)F               HepG2            %              17
17  COc1cccc(CN2CCC3(CC2)CN(C(=O)Nc2ccc(Cl)c(Cl)c2)C3)c1               HepG2            %              29
18      CC(=NNC(=N)N)c1ccc2ccc3ccccc3c2c1.Cl               HepG2            %              14
